conditions: in water, 293.15 K

{"molecularString": "Nc1ccc(S(=O)(=O)Nc2ncccn2)cc1", "solubility (mole fraction)": "3.8e-07"}

* * *

details: in ethanol, 293.15 K

{"molecularString": "Nc1ccc(S(=O)(=O)Nc2ncccn2)cc1", "solubility (mole fraction)": "6.26e-06"}

* * *

conditions: in ethanol, 308.15 K

{"molecularString": "Nc1ccc(S(=O)(=O)Nc2ncccn2)cc1", "solubility (mole fraction)": "1.17e-05"}

* * *

settings: in ethanol, 313.15 K

{"molecularString": "Nc1ccc(S(=O)(=O)Nc2ncccn2)cc1", "solubility (mole fraction)": "1.38e-05"}

* * *

conditions: in water, 313.15 K

{"molecularString": "Nc1ccc(S(=O)(=O)Nc2ncccn2)cc1", "solubility (mole fraction)": "1.14e-06"}

Data origin: BigSolDB 2.1
